From: ChEMBL document CHEMBL4196077

This section presents compounds with their documented EC values.
target: C-X-C chemokine receptor type 4 (Homo sapiens) (UniProt P61073); assay: Inhibition of biotinylated TN14003 binding to CXCR4 in human MDA-MB-231 cells preincubated for 10 mins followed by TN14003 addition measured after 30 mins by rhodamine dye-based microscopic analysis; type: cell-based
Sequence (P61073 whole entry): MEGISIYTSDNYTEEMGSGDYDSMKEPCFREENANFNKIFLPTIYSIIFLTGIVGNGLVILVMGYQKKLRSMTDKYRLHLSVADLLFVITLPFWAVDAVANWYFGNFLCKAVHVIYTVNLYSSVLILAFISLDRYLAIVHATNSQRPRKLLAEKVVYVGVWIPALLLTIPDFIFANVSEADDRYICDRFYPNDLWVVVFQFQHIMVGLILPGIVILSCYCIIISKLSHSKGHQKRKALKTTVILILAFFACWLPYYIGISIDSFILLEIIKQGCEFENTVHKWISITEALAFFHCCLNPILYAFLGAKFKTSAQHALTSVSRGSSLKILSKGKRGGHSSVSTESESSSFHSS
Your answer should be a plain number; it is taken to be in nM.

| ENTRY_SMILES | ENDPOINT_UNIT | OBSERVED_MEASUREMENT |
| --- | --- | --- |
| Cc1ccccc1S(=O)(=O)NCc1ccc(CNC(=O)c2ccc(CNc3ncccn3)cc2)cc1 | nM | 10 |
| O=C(NCc1ccc(CNS(=O)(=O)c2cccc(F)c2)cc1)c1ccc(CNc2ncccn2)cc1 | nM | 1000 |
| O=C(NCc1ccc(CNS(=O)(=O)c2ccc(Cl)cc2)cc1)c1ccc(CNc2ncccn2)cc1 | nM | 100 |

EC reading for O=C(NCc1ccc(CNS(=O)(=O)c2cccc3ccccc23)cc1)c1ccc(CNc2ncccn2)cc1 : 1000

O=C(NCc1ccc(CNS(=O)(=O)c2ccc(-c3ccc(F)cc3)cc2)cc1)c1ccc(CNc2ncccn2)cc1 has a reported EC of 1000

The compound listed as O=C(NCc1ccc(CNS(=O)(=O)c2ccccc2F)cc1)c1ccc(CNc2ncccn2)cc1 shows EC equal to 1000

====

assay: Half life in human plasma; format: ADME
MEASURED_QUANTITY: half-life (h)
The figure you give is taken to be in h; do not add the unit.

Lab book: half-life of O=C(NCc1ccc(CNS(=O)(=O)c2ccccc2)cc1)c1ccc(CNc2ncccn2)cc1 noted as 2.5

====

target: UniProtKB P61073; assay: Inhibition of biotinylated TN14003 binding to CXCR4 in human MDA-MB-231 cells preincubated for 10 mins followed by TN14003 addition measured after 30 mins by rhodamine dye-based microscopic analysis; format: cell-based
EC by entry:
Respond with the bare value in nM.

// known answers, use as guide
| ENTRY_SMILES | EC (nM) |
| --- | --- |
| O=C(NCc1ccc(CNS(=O)(=O)c2ccc([N+](=O)[O-])cc2)cc1)c1ccc(CNc2ncccn2)cc1 | 1000 |
| O=C(NCc1ccc(CNS(=O)(=O)c2ccc(F)c(F)c2)cc1)c1ccc(CNc2ncccn2)cc1 | 100 |
| O=C(NCc1ccc(CNS(=O)(=O)c2cccc(Cl)c2)cc1)c1ccc(CNc2ncccn2)cc1 | 1 |
| O=C(NCc1ccc(CNS(=O)(=O)c2cccc(C(F)(F)F)c2)cc1)c1ccc(CNc2ncccn2)cc1 | 1000 |

The compound listed as Cc1cccc(S(=O)(=O)NCc2ccc(CNC(=O)c3ccc(CNc4ncccn4)cc3)cc2)c1 shows EC equal to 100

The recorded EC for O=C(NCc1ccc(CNS(=O)(=O)c2ccccc2)cc1)c1ccc(CNc2ncccn2)cc1 is 1

Short answer for O=C(NCc1ccc(CNS(=O)(=O)c2ccc3c(c2)CCO3)cc1)c1ccc(CNc2ncccn2)cc1 : EC was 1000

Query O=C(NCc1ccc(CNS(=O)(=O)c2ccccc2Cl)cc1)c1ccc(CNc2ncccn2)cc1 yields EC of 1000

// recorded EC for Cc1ccc(S(=O)(=O)NCc2ccc(CNC(=O)c3ccc(CNc4ncccn4)cc3)cc2)cc1 : 100
